- EXPERIMENTAL_DETAILS: qHTS of pediatric cancer cell lines to identify multiple opportunities for drug repurposing: Primary screen for control Hh wild type fibroblast cells (AID 1347106); note: nearly all actives have a fitted effect of over 55% in size
- CONDITION_CONTEXT: Hh wild-type fibroblast viability, CellTiter-Glo luminescence, 48 h; series mostly up to 46 µM
Inconclusive results are not listed. Activity calls are given as the source filed them. Calls come from the whole dose curve; as a rule, active = well fitted cell-killing curve with a large enough effect; inconclusive = small, poorly fitted or top-dose-only effect; inactive = flat fitted curve, though single readings scatter. Non-standard residues stand in square brackets, D forms with d. Residues, ends and D or L forms follow the SMILES beside them. *: point of attachment. Nva = CCC[C@H](N)C(=O)O; Cbz = O=C(OCc1ccccc1)*
Outcomes: Y (active), N (inactive)

>>> assigned_class("COc1ccnc2[nH]cc(C(=O)C(=O)N3CCN(C(=O)c4ccccc4)C[C@@H]3C)c12")
"N"
>>> assigned_class("O=C(C=CC#Cc1cccc(NS(=O)(=O)c2ccccc2)c1)NO")
"N"
>>> assigned_class("C[C@@]12C[C@@]3(O)O[C@@H](O1)[C@]1(COC(=O)c4ccccc4)[C@@H]3C[C@@]12O[C@@H]1O[C@H](CO)[C@@H](O)[C@H](O)[C@@H]1O")
"N"
>>> assigned_class("NC(=NCCCCCCN=C(N)N=C(N)Nc1ccc(Cl)cc1)N=C(N)Nc1ccc(Cl)cc1")
"Y"
>>> assigned_class("COc1cc(C)c(C=CC(C)=CC=CC(C)=CC(=O)O)c(C)c1C")
"N"
>>> assigned_class("CC(=O)ON=C1C(c2c(O)[nH]c3cc(Br)ccc23)=Nc2ccccc21")
"N"
>>> assigned_class("N#Cc1cc(NC(=O)Nc2nnc(-c3ccncc3)s2)ccc1-c1cn[nH]c1")
"N"
>>> assigned_class("Cc1cnc(Nc2ccc(CN3CCOCC3)cc2)nc1Nc1cccc(S(=O)(=O)NC(C)(C)C)c1")
"Y"
>>> assigned_class("Cc1noc(-c2ccc(CSCCC(=O)O)cc2)c1NC(=O)OC(C)c1ccccc1Cl (stereo unspecified)")
"N"
>>> assigned_class("CCC[C@@H](C=O)NC(=O)[C@H](CC(C)C)NC(=O)[C@H](CC(C)C)NC(=O)OCc1ccccc1 (Cbz-Leu-Leu-[Nva]-aldehyde)")
"Y"
>>> assigned_class("NC(=O)Nc1sc(-c2ccc(F)cc2)cc1C(N)=O")
"N"
>>> assigned_class("C[C@H](NC(=O)[C@@H](O)c1cc(F)cc(F)c1)C(=O)N[C@@H]1C(=O)N(C)c2ccccc2-c2ccccc21")
"N"
>>> assigned_class("O=C(O)c1ccc(Nc2ncc3c(n2)-c2ccc(Cl)cc2C(c2c(F)cccc2F)=NC3)cc1")
"N"
>>> assigned_class("c1cc(CN2CCCNCCNCCCNCC2)ccc1CN1CCCNCCNCCCNCC1")
"N"
>>> assigned_class("CS(=O)(=O)N1CCc2c(-c3cnc(N)nc3)nc(N3CCOCC3)nc21")
"N"
>>> assigned_class("CC(C)(O)[C@H]1CC[C@@](C)([C@H]2[C@@H](O)C[C@@]3(C)[C@@H]4C[C@H](O[C@@H]5O[C@H](CO)[C@@H](O)[C@H](O)[C@@H]5O)[C@H]5C(C)(C)[C@@H](O[C@@H]6OC[C@@H](O)[C@H](O)[C@@H]6O)CC[C@@]56C[C@@]46CC[C@]23C)O1")
"N"
>>> assigned_class("C=C1CCC2[C@](C)(CO)C(O)CC[C@]2(C)C1CC=C1C(=O)OCC1O (stereo partly specified)")
"N"
>>> assigned_class("CC(Oc1ccc(O)cc1)(P(=O)(O)O)P(=O)(O)O")
"N"
>>> assigned_class("NC(=O)Nc1cc(-c2ccc(CN3CCOCC3)cc2)sc1C(N)=O")
"N"
>>> assigned_class("CC(=O)OC[C@@H]1O[C@@H](n2ccc(=O)[nH]c2=O)[C@H](OC(C)=O)[C@H]1OC(C)=O")
"N"
>>> assigned_class("COc1cc2ncnc(Nc3cccc(Br)c3)c2cc1OC")
"N"
>>> assigned_class("Cc1ccc(-n2[nH]c(C)c(N=Nc3cccc(-c4cccc(C(=O)O)c4)c3O)c2=O)cc1C")
"N"
>>> assigned_class("O=c1[nH]c(=O)n([C@H]2C[C@@H](O)[C@@H](CO)O2)cc1C=CBr")
"N"
>>> assigned_class("CN(N=O)C(=O)N[C@H]1C(O)OC(CO)[C@@H](O)[C@H]1O (stereo partly specified)")
"N"
>>> assigned_class("CC(C)(O)CC[C@@H](O)[C@](C)(O)[C@H]1CC[C@@]2(O)C3=CC(=O)[C@@H]4C[C@@H](O)[C@@H](O)C[C@]4(C)[C@@H]3CC[C@]12C")
"N"
>>> assigned_class("CC(Cc1ccc(O)c(O)c1)(NN)C(=O)O (stereo unspecified)")
"N"
>>> assigned_class("COC(=O)[C@H](CCCN=C(N)N)NS(=O)(=O)c1ccc(C)cc1")
"N"
>>> assigned_class("C=CC[C@@H]1C=C(C)C[C@H](C)C[C@H](OC)[C@H]2O[C@@](O)(C(=O)C(=O)N3CCCC[C@H]3C(=O)O[C@H](C(C)=C[C@@H]3CC[C@H](O)[C@H](OC)C3)[C@@H](C)[C@@H](O)CC1=O)[C@@H](C)C[C@@H]2OC")
"N"
>>> assigned_class("Cc1coc2c1C(=O)C(=O)c1c-2ccc2c(C)cccc12")
"N"
>>> assigned_class("COC[C@H](NC(=O)c1cnc(C)s1)C(=O)N[C@@H](COC)C(=O)N[C@@H](Cc1ccccc1)C(=O)[C@@]1(C)CO1")
"Y"
>>> assigned_class("CCCCCN=C(N)NN=Cc1c[nH]c2ccc(OC)cc12")
"N"
>>> assigned_class("COc1cc(C[C@@H](CO)[C@H](CO)Cc2ccc(O)c(OC)c2)ccc1O")
"Y"
>>> assigned_class("C[C@H]1COc2c(N3CCN(C)CC3)c(F)cc3c(=O)c(C(=O)O)cn1c23")
"N"
>>> assigned_class("O=C1c2c(O)cccc2[C@@H]([C@@H]2O[C@H](CO)[C@@H](O)[C@H](O)[C@H]2O)c2cc(CO)cc(O)c21")
"N"
>>> assigned_class("Nc1ccn(C2CO[C@H](CO)O2)c(=O)n1 (stereo partly specified)")
"N"
>>> assigned_class("C[N+]1(C)[C@@H]2C[C@@H](OC(=O)C(O)(c3cccs3)c3cccs3)C[C@H]1[C@@H]1O[C@@H]12")
"N"
